Reported z-score values are given for each entry in this list.
Assay: RPMI8226 myeloma cell viability, profiling panel, resazurin fluorescence, basal, 24 h, PK04 Diversity Set (AID 1180);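 also: RPMI8826 multiple myeloma cell line at 5000 cells per well; test concentration not given here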
Settings: higher = more signal
Give a plain numeric answer without units written out.

Compound	Measured attribute	Reported result
[N-]=[N+]=Nc1ccccc1C[C@]1(C(=O)NCC(O)CO)N=C(c2ccc(OCCCO)cc2)O[C@H]1c1ccccc1N=[N+]=[N-] (some centres not stated)	z-score	-1.99
O=C1C2C=CC(C(O)C3CCCCC3)N(Nc3ccc([N+](=O)[O-])cc3)C2C(=O)N1c1ccccc1 (configuration not stated)	z-score	-0.675
Cc1ccc(S[C@]2(C(=O)NCCN3CCOCC3)CC(=O)N(Cc3ccccc3)[C@@H]2c2ccc(CO)cc2I)cc1	z-score	-2.02
CCCCN1CC=CC23O[C@@H]4C=CCOC(=O)[C@@H]4[C@H]2C(=O)N(CCCCCO)[C@@H]3C1=O (some centres not stated)	z-score	-0.531

CCCC#C[Si](O[C@H](CC)c1cn([C@H](CO)Cc2ccccc2)nn1)(C(C)C)C(C)C yielded z-score of 0.114

C[C@]1(C(=O)NC2CC2)c2ccccc2C(=O)N(Cc2cc(C(F)(F)F)cc(C(F)(F)F)c2)[C@H]1c1ccc(CO)cc1 yielded z-score of 0.367

C=CCOC(=O)[C@@H]1[C@H]2C(=O)O[C@H](c3ccccc3)[C@H](c3ccccc3)N2[C@H](c2ccc(OCCOC(=O)[C@@H]3C[C@@H]4C(=O)N[C@@H](CCCC[N+](C)(C)C)C(=O)N4[C@@H]3c3cccc(OCCO)c3)cc2)[C@@]12C(=O)Nc1ccc(I)cc12 yielded z-score of -0.847

----------
Target: Carbonic anhydrase 2 (Homo sapiens)
Assay: CAII small-molecule binders, profiling panel, biochemical, small-molecule microarray, Alexa647-labelled CAII (AID 1122)
Conditions: CAII-A647 binding fluorescence, higher = more signal
Threshold rule: composite z-score greater than or equal to 0.6 is 1 (yes); below that, 0 (no).

Illustrative cases are given below, each with its answer.
Compound	Group label
O=C1C2C=CC(C(O)C3CCCCC3)N(Nc3ccc([N+](=O)[O-])cc3)C2C(=O)N1c1ccccc1 (configuration not stated)	0 (no)
NC(=O)[C@@H]1[C@H]2C(=O)O[C@H](c3ccccc3)[C@H](c3ccccc3)N2[C@H](c2ccc(O)cc2)[C@@]12C(=O)Nc1ccc(C#CC3(O)CCCCCC3)cc12	1 (yes)
COC(=O)C(CC#Cc1ccc2c(c1)[C@]1(C(=O)N2)[C@H](c2ccc(O)cc2)N2[C@H](c3ccccc3)[C@H](c3ccccc3)OC(=O)[C@H]2[C@@H]1C(=O)Nc1nc2ccccc2s1)C(=O)OC	0 (no)
COC(=O)[C@@]1(Cc2ccc(F)cc2)[C@H]2c3cc(C(=O)N(C)C)n(Cc4nc5ccccc5[nH]4)c3C[C@H]2CN1C(=O)c1ccccc1	1 (yes)

As a next step, examine the compound that follows.
Exam item: I'd appreciate it if you could say whether CCCCC(O)C1C=CC2C(=O)N(c3ccccc3)C(=O)C2N1Nc1ccccc1F (configuration not stated) has composite z-score at least equal to 0.6.
Marked response: 1 (yes)

----------
Test: binders of probe aHhip on microarray, primary screen, stem cell growth factor project, biochemical, small-molecule microarray, fluorescence 635/667 (AID 1087);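 also: score merges spot fluorescence at 667nm with spot signal to noise ratio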
Details: higher = more signal
Response field class: string, computed from recorded composite z-score by ranges I (below -0.06), II (-0.06 to below 0.09), III (0.09 or more)

Illustrative cases are given below, each with its answer.
Molecule	Group label
COCCOC(=O)N1C(=O)[C@@]2(c3cc(C#Cc4ccc(OC)cc4)ccc31)[C@H](C(N)=O)[C@H]1C(=O)O[C@H](c3ccccc3)[C@H](c3ccccc3)N1[C@@H]2c1ccccc1OCCO	II
CN(C)C(=O)[C@@]1(Cc2ccccc2CN=[N+]=[N-])N=C(c2ccc(OCCCO)cc2)O[C@H]1c1ccccc1	I
C=CCOC(=O)[C@H]1[C@@H]2C(=O)O[C@@H](c3ccccc3)[C@@H](c3ccccc3)N2[C@@H](c2ccc(OCCOC(=O)[C@H]3C[C@H]4C(=O)N5CCC[C@H]5C(=O)N4[C@H]3c3ccc(O)cc3)cc2)[C@]12C(=O)Nc1ccc(I)cc12	III
COCCCNC(=O)C1N=C(c2ccc(OCCCO)cc2)N(c2ccccc2)O1 (stereo unspecified)	II

As a next step, examine the molecule that follows.
Exam item: Class (by measured composite z-score) for COc1ccc(C(=O)Nc2cccc(CN3C(=O)[C@]4(O[C@H](CCO)[C@@H]([Si](C)(C)c5ccc(OC)cc5)[C@@H]4C)c4ccccc43)c2)cc1
Marked response: I
